System: Saccharomyces cerevisiae;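 further: PSI is a weighted mean of sequencing reads over stability bins, variants kept only with over 10 reads, mCherry proximal and sfGFP distal, peptide attached via GGGS linker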
method_notes: protein stability index of tFT-peptide fusion (C-terminal peptide) (PSI (0-1 scale)); higher = more stable (slower turnover)
test_conditions: genetic background: wild type; temperature: 30 C
recorded_endpoint: protein stability index
In your answer, state the number alone without any accompanying words.

Illustrative cases are given below, each with its answer.
QGGRGGRHVTDI; 0.688
YLYMESTVESHL; 0.719
PHPATLPPPAPT; 0.699
LPYAMPGFHSTR; 0.701
TYKEHNKTRETG; 0.686
LSCRGVTIRYCW; 0.683
SKKTSRSKVHTS; 0.685
PRSLPLDHPAPC; 0.709

IN: Could you share which protein stability index value was measured for WNSISGRTVVYM ?
OUT: 0.709

IN: Please answer likewise for ASFMSPPSAPLA
OUT: 0.695

IN: Please answer likewise for ALGRWAVSCNRG
OUT: 0.71
